# assayed.target: T1, human CD48 (on primary human peripheral blood mononuclear cells) (human, UniProt P09326 27-220)
# T1 sequence: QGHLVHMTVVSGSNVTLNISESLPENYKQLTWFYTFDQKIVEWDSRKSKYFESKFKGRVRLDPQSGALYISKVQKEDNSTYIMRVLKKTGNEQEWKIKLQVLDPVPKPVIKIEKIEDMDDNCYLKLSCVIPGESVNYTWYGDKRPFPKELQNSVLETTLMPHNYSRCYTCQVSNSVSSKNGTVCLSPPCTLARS
# experiment.summary: cell-based or functional assay
metric: Inhibition of IFN-gamma Release IC50; Donor 6 (Molar)
Give a bare numeral; the unit Molar is implied.

Guide cases for Inhibition of IFN-gamma Release IC50; Donor 6, answers given:
H4H1779P (antibody, human IgG4, V domains shown, Human IgG4 Fc (H4H)) VH: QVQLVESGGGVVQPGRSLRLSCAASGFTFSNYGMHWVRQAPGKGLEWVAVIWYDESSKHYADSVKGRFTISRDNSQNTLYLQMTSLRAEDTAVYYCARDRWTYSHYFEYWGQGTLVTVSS VL: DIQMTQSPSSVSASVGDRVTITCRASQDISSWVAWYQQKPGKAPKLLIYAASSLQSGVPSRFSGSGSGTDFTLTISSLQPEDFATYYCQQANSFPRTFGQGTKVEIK = 1.7e-12
H4H1781P (antibody, human IgG4, V domains shown, Human IgG4 Fc (H4H)) VH: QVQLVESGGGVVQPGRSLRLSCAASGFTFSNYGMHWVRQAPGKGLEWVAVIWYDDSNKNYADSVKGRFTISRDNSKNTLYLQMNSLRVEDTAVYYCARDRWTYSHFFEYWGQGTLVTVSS VL: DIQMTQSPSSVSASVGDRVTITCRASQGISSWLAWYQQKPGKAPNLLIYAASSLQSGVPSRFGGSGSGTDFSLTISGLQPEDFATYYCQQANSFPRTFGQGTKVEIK = 3.6e-11
H4H1778P (antibody, human IgG4, V domains shown, Human IgG4 Fc (H4H)) VH: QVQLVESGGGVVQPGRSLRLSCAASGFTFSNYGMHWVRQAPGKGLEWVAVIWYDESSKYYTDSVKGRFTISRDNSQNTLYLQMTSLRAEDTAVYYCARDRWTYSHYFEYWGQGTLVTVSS VL: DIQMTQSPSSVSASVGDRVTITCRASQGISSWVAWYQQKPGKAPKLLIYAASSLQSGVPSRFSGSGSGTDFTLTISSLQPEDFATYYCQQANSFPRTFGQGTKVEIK = 9.8e-12
H2M1763N (antibody, mouse IgG2, V domains shown, Human variable domains, mouse IgG2 Fc (H2M)) VH: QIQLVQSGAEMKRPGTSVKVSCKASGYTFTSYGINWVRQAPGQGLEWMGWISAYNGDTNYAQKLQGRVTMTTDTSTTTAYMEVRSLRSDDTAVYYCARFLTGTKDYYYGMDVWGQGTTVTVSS VL: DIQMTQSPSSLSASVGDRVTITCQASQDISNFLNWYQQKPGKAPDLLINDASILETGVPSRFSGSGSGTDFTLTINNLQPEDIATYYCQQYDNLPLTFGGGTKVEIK = 2.6e-11

Pending binder:
Summary for this binder, H2M1713N (antibody, mouse IgG2, V domains shown, Human variable domains, mouse IgG2 Fc (H2M)) VH: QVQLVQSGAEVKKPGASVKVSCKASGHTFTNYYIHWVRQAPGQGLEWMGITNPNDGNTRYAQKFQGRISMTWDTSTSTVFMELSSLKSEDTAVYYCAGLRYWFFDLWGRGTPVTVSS VL: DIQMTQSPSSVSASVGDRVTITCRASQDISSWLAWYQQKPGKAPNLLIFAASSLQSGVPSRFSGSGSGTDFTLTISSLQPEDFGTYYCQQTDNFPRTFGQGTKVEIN : Inhibition of IFN-gamma Release IC50; Donor 6 is 2.2e-11
